assay: Drug concentration in plasma of rat after subcutaneous administration of microcapsule; assay type: in vivo; details: sc; 25 mg microcapsule of Example 1, subcutaneous at rear neck, 9 week old male SD rat, plasma from tail vein, after 2 weeks, n = 4
recorded_endpoint: concentration at 2 weeks (ng/mL)

1 = CCc1ccc(CCOc2ccc(CC3SC(=O)NC3=O)cc2)nc1 (centres unmarked)
2 = CCOc1nc2cccc(C(=O)O)c2n1Cc1ccc(-c2ccccc2-c2nnn[nH]2)cc1
Q: Field: lower concentration at 2 weeks | Options: 1 / 2 Pick one and reply with its label.
Result: 2
(2: 94 ng/mL, 1: 155 ng/mL)

* * *

assay: Drug concentration in plasma of rat after subcutaneous administration of microcapsule; assay type: in vivo; conditions: sc; 25 mg microcapsule of Example 1, subcutaneous at rear neck, 9 week old male SD rat, plasma from tail vein, after 1 day, n = 4
recorded_endpoint: concentration at 1 day (ng/mL)

a = CCc1ccc(CCOc2ccc(CC3SC(=O)NC3=O)cc2)nc1 (centres unmarked)
b = CCOc1nc2cccc(C(=O)O)c2n1Cc1ccc(-c2ccccc2-c2nnn[nH]2)cc1
Q: Field: lower concentration at 1 day | Options: a / b Pick one and reply with its label.
Result: b

Reference source for all entries: patent US20040219208A1
